Assay: Drug level in healthy human feces at 250 mg, po administered as single dose by LC-MS/MS method
Format: ADME, organism-based
Conditions: read-out: Drug uptake
Quantity Measured: dose excreted (%)
Reply with just the number (in %).

Any idea what dose excreted was measured for "CS(=O)(=O)CCNCc1ccc(-c2ccc3ncn[14c](Nc4ccc(OCc5cccc(F)c5)c(Cl)c4)c3c2)o1.Cc1ccc(S(=O)(=O)O)cc1.O" ?
27

###

Test: Drug recovery in healthy female human feces at 250 mg, po administered as single dose
Format: ADME, organism-based
Details: read-out: Drug recovery
Quantity Measured: dose excreted
Please answer using a numeric value trailed by its unit.

Any idea what dose excreted was measured for "CS(=O)(=O)CCNCc1ccc(-c2ccc3ncn[14c](Nc4ccc(OCc5cccc(F)c5)c(Cl)c4)c3c2)o1.Cc1ccc(S(=O)(=O)O)cc1.O" ?
89.9%

Hey, just so you know, these numbers are from ChEMBL document CHEMBL3526055.
